Values from patent US5952368A

# assayedSystem: COX II (Homo sapiens, UniProt P35354)
# Construct: made in house; baculovirus-infected insect cells by own knowledge of the cited Barnett et al. 1994
# Sequence (P35354 18-604): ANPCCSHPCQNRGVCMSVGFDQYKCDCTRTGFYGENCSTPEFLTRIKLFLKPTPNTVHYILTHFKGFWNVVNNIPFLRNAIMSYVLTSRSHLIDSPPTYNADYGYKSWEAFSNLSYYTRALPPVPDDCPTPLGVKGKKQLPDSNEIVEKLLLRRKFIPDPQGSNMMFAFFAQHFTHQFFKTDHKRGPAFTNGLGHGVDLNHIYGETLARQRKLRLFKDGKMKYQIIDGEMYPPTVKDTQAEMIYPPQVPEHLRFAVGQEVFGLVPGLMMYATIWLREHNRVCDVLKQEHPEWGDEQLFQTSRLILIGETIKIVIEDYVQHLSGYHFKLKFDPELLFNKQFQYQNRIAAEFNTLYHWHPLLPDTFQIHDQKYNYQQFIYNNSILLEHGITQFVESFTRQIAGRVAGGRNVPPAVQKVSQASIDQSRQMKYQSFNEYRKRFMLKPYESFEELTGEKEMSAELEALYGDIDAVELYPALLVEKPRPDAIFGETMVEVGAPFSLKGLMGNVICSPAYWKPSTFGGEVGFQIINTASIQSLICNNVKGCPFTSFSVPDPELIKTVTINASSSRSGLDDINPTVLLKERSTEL
# protocolSummary: Inhibition of COX II in vitro (radiometric assay, 14C arachidonic acid, partially purified enzyme)
# Type: biochemical
# runParameters: partially purified COX II, 20 micromolar arachidonic acid, 10 min preincubation, room temperature; read-out: COX II IC50
pIC50: −log10 of the molar value.
parameter: pIC50

# count of solved cases: 4
Cc1ccc(C(=O)c2ccc(Cc3ccc(NS(=O)(=O)CCO)cc3F)n2C)c(C)c1: 7.10
CN(C)c1ccc(C(=O)c2ccc(Cc3ccc(NS(C)(=O)=O)cc3F)n2C)cc1: 7.22
Cc1cc(Cc2ccc(NS(N)(=O)=O)cc2C#N)n(C)c1C(=O)c1ccc(Cl)cc1: 7.00
Cc1cc(Cc2ccc(NS(=O)(=O)N(C)C)cc2)n(C)c1C(=O)c1ccc(Cl)cc1: 6.92

I. Cc1cc(Cc2ccc(NC(=O)N(C)C)cc2)n(C)c1C(=O)c1ccc(Cl)cc1
II. Cc1cc(Cc2ccc(NS(N)(=O)=O)cc2)n(C)c1C(=O)c1ccccc1
Determine, for I and II , which has the greater value of pIC50. Kindly give the label for the entry you pick.
II

* * *

# assayedSystem: COX II (Homo sapiens)
# Construct: made in house; baculovirus-infected insect cells by own knowledge of the cited Barnett et al. 1994
# protocolSummary: Inhibition of COX II in vitro (radiometric assay, 14C arachidonic acid, partially purified enzyme)
# Type: biochemical
# runParameters: partially purified COX II, 20 micromolar arachidonic acid, 10 min preincubation, room temperature; read-out: COX II IC50
parameter: IC50 (nM)

// solved cases for IC50 follow
COc1ccc(C(=O)c2ccc(Cc3ccc(NS(=O)(=O)CCO)cc3F)n2C)cc1 [compound 106]: 70
COc1ccc(C(=O)c2c(C)cc(Cc3ccc(NS(C)(=O)=O)cc3F)n2C)cc1 [compound 95]: 60

P. Cc1cc(Cc2ccc(NS(C)(=O)=O)cc2C#N)n(C)c1C(=O)c1ccc(Cl)cc1 [compound 19]
Q. Cc1ccc(C(=O)c2ccc(Cc3ccc(NS(C)(=O)=O)cc3Cl)n2C)cc1 [compound 31]
Lab notebook, comparison: P versus Q , higher IC50 goes to which? In your reply, give the label of the chosen option.
P
(P: 80 nM, Q: 45 nM)

* * *

# assayedSystem: COX I (Homo sapiens, UniProt P23219)
# Construct: made in house; baculovirus-infected insect cells by own knowledge of the cited Barnett et al. 1994
# Sequence (P23219 24-599): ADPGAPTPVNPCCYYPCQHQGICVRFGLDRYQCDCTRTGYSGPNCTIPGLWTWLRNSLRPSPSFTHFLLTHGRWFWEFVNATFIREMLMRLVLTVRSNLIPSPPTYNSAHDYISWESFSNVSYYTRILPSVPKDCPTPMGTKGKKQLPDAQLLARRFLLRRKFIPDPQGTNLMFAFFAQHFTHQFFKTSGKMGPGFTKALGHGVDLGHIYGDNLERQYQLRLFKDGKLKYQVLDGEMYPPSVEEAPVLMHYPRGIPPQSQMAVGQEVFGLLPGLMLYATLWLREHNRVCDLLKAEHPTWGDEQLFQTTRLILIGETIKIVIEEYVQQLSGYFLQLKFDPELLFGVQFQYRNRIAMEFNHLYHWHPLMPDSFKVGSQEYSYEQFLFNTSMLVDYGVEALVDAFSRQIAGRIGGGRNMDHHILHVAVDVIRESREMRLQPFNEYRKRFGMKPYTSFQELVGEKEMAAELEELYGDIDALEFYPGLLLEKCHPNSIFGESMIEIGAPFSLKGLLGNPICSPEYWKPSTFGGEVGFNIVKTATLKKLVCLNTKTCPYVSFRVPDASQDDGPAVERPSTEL
# protocolSummary: Inhibition of COX I in vitro (radiometric assay, 14C arachidonic acid, partially purified enzyme)
# Format: biochemical
# runParameters: partially purified COX I, 20 micromolar arachidonic acid, 10 min preincubation, room temperature; read-out: COX I IC50
pIC50: −log10 of the molar value.
parameter: pIC50

Take a look at these entries with their results.
COc1ccc(C(=O)c2ccc(Cc3ccc(NS(C)(=O)=O)cn3)n2C)cc1: 3.63
Cc1cc(Cc2ccc(NS(=O)(=O)CCO)cc2F)n(C)c1C(=O)c1ccc(F)cc1: 6.12
Cc1cc(Cc2ccc(NS(N)(=O)=O)cc2)n(C)c1C(=O)c1ccccc1: 6.10
CCNC(=S)Nc1ccc(Cc2cc(C)c(C(=O)c3ccc(Cl)cc3)n2C)nc1: 4.19
Cc1ccccc1C(=O)c1ccc(Cc2ccc(NS(C)(=O)=O)cc2F)n1C: 4.42
Cc1ccc(C(=O)c2c(C)cc(Cc3ccc(NS(C)(=O)=O)cc3F)n2C)cc1: 6.57

A. CS(=O)(=O)Nc1ccc(C2CCn3c(C(=O)c4ccccc4)ccc32)c(Cl)c1 (centres unmarked)
B. Cc1cc(Cc2ccc(NS(=O)(=O)N(C)C)cn2)n(C)c1C(=O)c1ccccc1
C. Cc1cc(Cc2ccc(NS(=O)(=O)CCO)cc2F)n(C)c1C(=O)c1ccccc1
D. CNC(=S)Nc1ccc(Cc2cc(C)c(C(=O)c3ccc(Cl)cc3)n2C)cc1
E. CSc1ccc(C(=O)c2c(C)cc(Cc3ccc(N)cc3F)n2C)cc1
Sort the compounds on pIC50; start with the lowest figure. Quick reminder: the answer is the labels in the order asked.
E, D, B, A, C

P. CCNC(=S)Nc1ccc(Cc2cc(C)c(C(=O)c3ccc(Cl)cc3)n2C)cc1
Q. Cc1cc(Cc2ccc(NS(N)(=O)=O)cc2)n(C)c1C(=O)c1ccc(Cl)cc1
Which numeric pIC50 is bigger, that of P or that of Q ? Write the label of whichever entry you select.
Q
(Q: 5.41, P: 5.09)

A. Cc1cc(Cc2ccc(O)cc2)n(C)c1C(=O)c1ccc(Cl)cc1
B. Cc1cc(Cc2ccc(N)cc2)n(C)c1C(=O)c1ccc(Cl)cc1
C. COc1ccc(C(=O)c2ccc(Cc3ccc(NS(=O)(=O)CCO)cc3F)n2C)cc1
Output the entries ranked by pIC50 from maximum down to minimum. # list labels per requested ordering
C, A, B
(C: 6.02, A: 5.18, B: 4.47)
